# Tested on: CAL-12T
# protocol_description: relative viability (nuclei count vs DMSO), 5 days (fraction); higher = more cells survive
# condition_summary: first compound 0.4 µM
readout_label: relative viability

Some solved cases for reference:
COc1cc(N2CCC(C(N)=O)CC2)ccc1Nc1nc(N)c(Cl)c(Nc2ccccc2S(=O)(=O)C(C)C)n1 [HG-5-88-01] + CCNC(=O)c1noc(-c2cc(C(C)C)c(O)cc2O)c1-c1ccc(CN2CCOCC2)cc1 [Luminespib] (partner 0.01 µM) = 0.36
COc1cc(N2CCC(C(N)=O)CC2)ccc1Nc1nc(N)c(Cl)c(Nc2ccccc2S(=O)(=O)C(C)C)n1 [HG-5-88-01] + CC(=O)Nc1cccc(-n2c(=O)n(C3CC3)c(=O)c3c(Nc4ccc(I)cc4F)n(C)c(=O)c(C)c32)c1 [Trametinib] (partner 0.02 µM) = 0.3
C[C@@H]1CN(CC(=O)Nc2ccc3c(c2)Cc2cccc(-c4cc(=O)cc(N5CCOCC5)o4)c2S3)C[C@H](C)O1 + CS(=O)(=O)N1CCN(Cc2cc3nc(-c4cccc5[nH]ncc45)nc(N4CCOCC4)c3s2)CC1 [Pictilisib] (partner 1 µM) = 0.396
Clc1ccc(Nc2nnc(Cc3ccncc3)c3ccccc23)cc1 [Vatalanib] + COc1cccc2cc(-c3nc([C@H]4CC[C@H](C(=O)O)CC4)n4ncnc(N)c34)[nH]c12 [OSI-027] (partner 0.5 µM) = 0.583
C[C@@H]1CN(CC(=O)Nc2ccc3c(c2)Cc2cccc(-c4cc(=O)cc(N5CCOCC5)o4)c2S3)C[C@H](C)O1 + Cc1nc(NC(=O)N2CCC[C@H]2C(N)=O)sc1-c1ccnc(C(C)(C)C(F)(F)F)c1 [Alpelisib] (partner 2 µM) = 1.19

Provide relative viability for all items below, preserving their order.
1. C[C@@H]1CN(CC(=O)Nc2ccc3c(c2)Cc2cccc(-c4cc(=O)cc(N5CCOCC5)o4)c2S3)C[C@H](C)O1 + CC1(C)CCC(c2ccc(Cl)cc2)=C(CN2CCN(c3ccc(C(=O)NS(=O)(=O)c4ccc(N[C@H](CCN5CCOCC5)CSc5ccccc5)c(S(=O)(=O)C(F)(F)F)c4)cc3)CC2)C1 [Navitoclax] (partner 0.5 µM)
2. C[C@@H]1CN(CC(=O)Nc2ccc3c(c2)Cc2cccc(-c4cc(=O)cc(N5CCOCC5)o4)c2S3)C[C@H](C)O1 + O=C(c1cc(Cc2n[nH]c(=O)c3ccccc23)ccc1F)N1CCN(C(=O)C2CC2)CC1 [Olaparib] (partner 8 µM)
3. C[C@@H]1CN(CC(=O)Nc2ccc3c(c2)Cc2cccc(-c4cc(=O)cc(N5CCOCC5)o4)c2S3)C[C@H](C)O1 + CC(=O)Nc1cccc(-n2c(=O)n(C3CC3)c(=O)c3c(Nc4ccc(I)cc4F)n(C)c(=O)c(C)c32)c1 [Trametinib] (partner 0.02 µM)

*A*
1: 1.07; 2: 0.656; 3: 0.304

Sample COc1cc(N2CCC(C(N)=O)CC2)ccc1Nc1nc(N)c(Cl)c(Nc2ccccc2S(=O)(=O)C(C)C)n1 [HG-5-88-01] + C[C@]1(O)C[C@@H](c2nc(-c3ccc4ccc(-c5ccccc5)nc4c3)c3c(N)nccn32)C1 [Linsitinib] (partner 1 µM) ; relative viability observed: 0.78

* * *

Hi there, I'd appreciate the recorded relative viability for every entry that follows.
# Tested on: NCI-H2087
# protocol_description: relative viability (nuclei count vs DMSO), 5 days (fraction); higher = more cells survive
# condition_summary: first compound 0.3162 µM
Answers are plain numbers.

# annotated cases, reported relative viability shown
CC(C)Oc1cc(Nc2nc(N[C@@H](C)c3ccc(F)cn3)ncc2Cl)n[nH]1 [AZ23] + CCNC(=O)c1noc(-c2cc(C(C)C)c(O)cc2O)c1-c1ccc(CN2CCOCC2)cc1 [Luminespib] (partner 0.01 µM) = 0.169
CC(C)Oc1cc(Nc2nc(N[C@@H](C)c3ccc(F)cn3)ncc2Cl)n[nH]1 [AZ23] + Nc1ncn([C@H]2C[C@H](O)[C@@H](CO)O2)c(=O)n1 [Decitabine] (partner 2 µM) = 0.237
CC(C)Oc1cc(Nc2nc(N[C@@H](C)c3ccc(F)cn3)ncc2Cl)n[nH]1 [AZ23] + C[C@]1(O)C[C@@H](c2nc(-c3ccc4ccc(-c5ccccc5)nc4c3)c3c(N)nccn32)C1 [Linsitinib] (partner 1 µM) = 0.955

Field: next compound
GET /value?item= CC(C)Oc1cc(Nc2nc(N[C@@H](C)c3ccc(F)cn3)ncc2Cl)n[nH]1 [AZ23] + CC(C)C[C@H](NC(=O)[C@H](Cc1ccccc1)NC(=O)c1cnccn1)B(O)O [Bortezomib] (partner 0.002 µM) &field=relative viability returns 0.778
